# Protocol Notes: Biodistribution in rats
# Type: in vivo, male Sprague-Dawley rats
# Setup Conditions: rat, iv, 30 min p.i., mean ± SD, n = 4
Note to self: values exactly at 0.4 %ID/g are Satisfied. So blood uptake at or above 0.4 %ID/g is Satisfied, below is Not satisfied.

Quick check: does Cn1cc(-c2ccncc2)c(-c2ccc(OCc3cc(C[18F])c4ccccc4n3)cc2)n1 [[^18F]18b] have blood uptake greater than or equal to 0.4 %ID/g?
Satisfied

What do we get for Cn1cc(-c2ccncc2)c(-c2ccc(OCc3cc([18F])c4ccccc4n3)cc2)n1 [[^18F]18a] ?
Not satisfied

What do we get for Cn1cc(-c2ccncc2)c(-c2ccc(OCc3cc(OCCOCCOCC[18F])c4ccccc4n3)cc2)n1 [[^18F]18g] ?
Satisfied

What do we get for Cn1cc(-c2ccncc2)c(-c2ccc(OCc3nc4ccccc4cc3OCC[18F])cc2)n1 [[^18F]20a] ?
Not satisfied

What do we get for Cn1cc(-c2ccncc2)c(-c2ccc(OCc3cc(COCC[18F])c4ccccc4n3)cc2)n1 [[^18F]18e] ?
Satisfied

What do we get for Cn1cc(-c2ccncc2)c(-c2ccc(OCc3cc(OCC[18F])c4ccccc4n3)cc2)n1 [[^18F]18d] ?
Not satisfied
